Experiment: Human HepG2 cell viability assay in 384 well format
Assay type: toxicity, cell-based
Design: dose 125 nL, time 70.5 hour; concentration not given beside the values
Settings: HepG2 cells, read-out: Inhibition
cytotoxicity at 70.5 h values for the molecules below.
Reply numerically in %, unit not repeated.

Observe how each entry below is paired with its result.
| MOLECULE | TEST_RESULT |
| --- | --- |
| OCC(O)CSCc1ccc(F)cc1Cl (stereo not given) | 19.6 |
| Cc1cc(-c2cnc(N3CCOCC3)nc2-c2cccnc2C)on1 | -4.33 |
| O=C(NCC1(O)CCC1)NC(c1cc(F)ccc1F)C1CC1 (stereo not given) | -6.17 |

Exam item: Quick check: cytotoxicity at 70.5 h of `CCCC(=O)Nc1ccc2c(c1)C1(CCOCC1)CN2CCOC` ?
Marked response: 18.8

Exam item: Same read-out for `CSc1ccc(C(=O)N2C[C@H]3CC[C@@H]2CN(Cc2ccccc2)C3)cc1` ?
Marked response: -0.304

Exam item: Same read-out for Cn1cc(CC2CCN(C(=O)NCc3cccc(C#N)c3)C2)cn1 (stereo not given) ?
Marked response: -5

Exam item: Same read-out for CCOC(=O)CCNC(=O)N1CCOC(Cc2cccc(OC)c2)C1 (stereo not given) ?
Marked response: -9.71

Exam item: Same read-out for Cc1nc(CNC(C)c2cccc(N3CCCC3=O)c2)cs1 (stereo not given) ?
Marked response: -7.67

Exam item: Same read-out for CC(C)N1CCC(NC(=O)c2cn(-c3ccc(F)cc3)nn2)C1 (stereo not given) ?
Marked response: -16.5

Exam item: Same read-out for `O=C(Nc1nncs1)N(Cc1cccc(F)c1)C1CC1` ?
Marked response: -5.56

Exam item: Same read-out for `CC(C)c1nc(NC(=O)CCCn2cccc2)n(C)n1` ?
Marked response: 3.43

Exam item: Same read-out for CC(CN1CCOCC1)NC1CCN(Cc2cccc(O)c2)CC1 (stereo not given) ?
Marked response: -8.8

Exam item: Same read-out for C1CC(NCc2nc(C3CC3)no2)CN(Cc2noc(C3CC3)n2)C1 (stereo not given) ?
Marked response: 21.5

Exam item: Same read-out for `CCOC(=O)N1CCN(c2nc(NCCCO)c3ccccc3n2)CC1` ?
Marked response: -21.9

Exam item: Same read-out for CC(C)(C)NC(=O)c1nn(C2CCS(=O)(=O)C2)c2c1CCCC2 (stereo not given) ?
Marked response: -18.7
